- Tested on: EKVX NSCLC
- Assay name: NCI tumour cell line growth inhibition, 48 h
Listing of recorded GI50 by entry.

# Smiles string, GI50
measured = [
    ("COC(=O)COc1ccccc1/C=C1\\N=C(c2ccccc2)N(c2cc(C(F)(F)F)ccc2Cl)C1=O", "> 100 µM"),
    ("O=C(Nc1ccc(Nc2ccncc2)cc1)c1ccc([N+](=O)[O-])cc1", "11.2 µM"),
    ("S=C(Nc1ccc(Cl)cc1)Nc1ccc(-c2nc3ccccc3s2)cc1", "15.1 µM"),
]

# molecule "CC[As](CC)SC[C@H](C)C(=O)N1CCC[C@H]1C(=O)O" ; its GI50 = 0.162 µM

# molecule "CCCCOC(=O)CNC(=O)OC/C=C/C#CC#C/C=C/COC(=O)NCC(=O)OCCCC" ; its GI50 = > 100 µM

# molecule "CCCCC#CC1=C(Br)C(=O)OC1" ; its GI50 = 3.79 µM

* * *

- Test system: NCI-H226 lung
- Assay name: NCI tumour cell line growth inhibition, 48 h
Starred links: 1 amine or outer side, 2 acyl side, 3 side chain; linkers in the order of their positions; H or OH if unused. Positions of bridges follow the written chain, without caps; N, C: chain ends. Non-standard residues stand in square brackets, D forms with d. Residues, ends and D or L forms follow the SMILES beside them. Chains are numbered I, II in the order given. Actinocin(9to1) = Cc1c2oc3c(C)ccc(C(=O)[*:1])c3nc-2c(C(=O)[*:2])c(N)c1=O; NMeY = CN[CH](Cc1ccc(O)cc1)C(=O)O; Sar = CNCC(=O)O
Listing of recorded TGI by entry.

Known results for compounds:
# Compound, Experimental target, TGI
records = [
    ("O=c1sc2ccccc2n1CC1CS1 (configuration not stated)", "NCI-H226 lung", "> 100 µM"),
    ("Cc1c2oc3c(C)ccc(C(=O)NC4C(=O)NC(C(C)C)C(=O)N5CCCC5C(=O)N(C)CC(=O)N(C)C(Cc5ccc(O)cc5)C(=O)OC4C)c3nc-2c(C(=O)NC2C(=O)NC(C(C)C)C(=O)N3CCCC3C(=O)N(C)CC(=O)N(C)C(Cc3ccc(O)cc3)C(=O)OC2C)c(N)c1=O (configuration not stated) (I: TVP[Sar][NMeY] / II: TVP[Sar][NMeY]; ester I:1-I:C, II:1-II:C; linker I:N-II:N via Actinocin(9to1); configuration not given here)", "NCI-H226 lung", "> 0.539 µM"),
    ("CCOC(=O)C(C#N)C1=CC(=O)C(=O)c2ccc(OC)cc21 (configuration not stated)", "NCI-H226 lung", "49.7 µM"),
]

# compound CC1=C(C)CC2C(=O)N(c3cc(C(C)(C)C)ccc3C(C)(C)C)C(=O)C2C1 (configuration not stated) ; its TGI = > 100 µM

# compound "COc1cccc(C(=O)Oc2ccc(OS(=O)(=O)c3ccc(C)cc3)cc2)c1C#N" ; its TGI = > 100 µM

# compound "COC(=O)COc1ccccc1/C=C1\N=C(c2ccccc2)N(c2cc(C(F)(F)F)ccc2Cl)C1=O" ; its TGI = > 100 µM

# compound "CC1(C)[C@@H](Cn2ccc(=O)[nH]c2=O)CC[C@@]1(C)CO" ; its TGI = > 100 µM

# compound "O=C(O)COc1ccc2c(=O)c3sc4c(=O)c5ccccc5c(=O)c4c3c(=O)c2c1" ; its TGI = 41.1 µM

* * *

- Tested on: CAKI-1 renal
- Assay name: NCI tumour cell line growth inhibition, 48 h
Readout type: TGI

Known results for compounds:
# Compound, Result
data = [
    ("CC(=O)Nc1ccc(N=Nc2c(O)c(S(=O)(=O)O)cc3cc(S(=O)(=O)O)ccc23)cc1", "> 100 µM"),
    ("CC1=C(C(=O)Nc2ccc(F)c(Cl)c2)C(c2ccccc2O)NC(=S)N1 (stereo not drawn)", "> 50 µM"),
]

Read the next record carefully.
Entry CN1CC(=O)N2Cc3ccccc3-n3cccc3C2C1 (stereo not drawn) , tested on CAKI-1 renal, has a reported TGI of > 100 µM

* * *

- Tested on: SK-OV-3 ovarian
- Assay name: NCI tumour cell line growth inhibition, 48 h
Listing of recorded TGI by entry.

# Compound, TGI
rows = [
    ("CCOC(=O)NC(Nc1ccc(C)cc1)(C(F)(F)F)C(F)(F)F", "> 100 µM"),
    ("CCOC(=O)C(C#N)C1=CC(=O)C(=O)c2ccc(OC)cc21 (stereo not drawn)", "56.7 µM"),
    ("COc1ccc(C2SC(N)=Nc3c2c(C)nn3C(=O)c2ccncc2)cc1OC (stereo not drawn)", "> 10 µM"),
    ("O=C(Nc1ccccc1)c1cc(S(=O)(=O)NC2=NC(c3ccccc3)c3cc(Cl)ccc3N2)c(SSc2cc(Cl)c(C(=O)Nc3ccccc3)cc2S(=O)(=O)NC2=NC(c3ccccc3)c3cc(Cl)ccc3N2)cc1Cl (stereo not drawn)", "> 100 µM"),
    ("COc1ccc(Sc2[nH]c(C(C)=O)c3ccccc23)cc1", "10.5 µM"),
    ("CC1CC(OP(=O)(OCc2ccccc2)OCc2ccccc2)[C@@H](OCc2ccccc2)C(OCc2ccccc2)C1OCc1ccccc1 (stereo partly drawn)", "> 100 µM"),
    ("CCCC(=O)OCC1OC(n2ccc(N)nc2=O)C(OC(=O)CCC)C1OC(=O)CCC (stereo not drawn)", "> 100 µM"),
]

Read the next record carefully.
# compound C=CCc1c(O)c2c(c3oc(=O)cc(C)c13)CC(C)O2 (stereo not drawn) ; its TGI = > 100 µM

* * *

Listing of recorded TGI by entry.
- Test system: MALME-3M melanoma
- Assay name: NCI tumour cell line growth inhibition, 48 h
Quick reminder: number only, in µM, skip the unit.

# Compound, TGI [µM]
measured = [
    ("C[n+]1c2ccc(Cl)cc2nc2cc(-c3ccccc3)ccc21", 40.4),
    ("CC[As](CC)SC[C@H](C)C(=O)N1CCC[C@H]1C(=O)O", 0.207),
    ("O=C1c2ccccc2C(=O)N1CCn1ccc(NC(c2ccccc2)(c2ccccc2)c2ccccc2)nc1=O", 43.2),
]

Read the next record carefully.
# compound COc1cc2c(cc1OC)C(CC1=C(c3ccccc3)CN3CCc4cc(OC)c(OC)cc4C3C1)NCC2 (stereo unspecified) ; its TGI = 35.1

* * *

- Tested on: OVCAR-8 ovarian
- Assay name: NCI tumour cell line growth inhibition, 48 h
Listing of recorded TGI by entry.

Known results for compounds:
# Compound, Readout type, Result
rows = [
    ("CCCCOC(=O)CNC(=O)OC/C=C/C#CC#C/C=C/COC(=O)NCC(=O)OCCCC", "TGI", "> 100 µM"),
    ("O=[N+]([O-])c1ccc2[nH]c(=S)[nH]c(=S)c2c1", "TGI", "> 100 µM"),
]

# compound O=C1CCC(Cl)=CC2CCCN12 (stereo not drawn) ; its TGI = > 100 µM

* * *

Listing of recorded GI50 by entry.
- Tested on: MALME-3M melanoma
- Assay name: NCI tumour cell line growth inhibition, 48 h

Known results for compounds:
# Compound, Result
measured = [
    ("CCN(CC)CCC(CNc1ccnc2cc(Cl)ccc12)c1ccc(Cl)cc1 (centres undefined)", "1.4 µM"),
    ("COc1cccc(F)c1C(=O)c1cnc(NC2CCN(S(C)(=O)=O)CC2)nc1N", "4.35 µM"),
    ("COc1ccc(OC)c2c1[nH]c(=O)c1c3ccccc3cn21", "1.78 µM"),
    ("S=C(Nc1ccc(Cl)cc1)Nc1ccc(-c2nc3ccccc3s2)cc1", "15.6 µM"),
    ("CNCc1ccccc1-c1csc([C@@H](C)Nc2nc(C)nc3cc(OC)c(OC)cc23)c1", "1.76 µM"),
]

Entry "Cn1cc(C2=C(c3ccc(N)cc3)C(=O)NC2=O)c2ccccc21" , tested on MALME-3M melanoma, has a reported GI50 of > 25 µM

Entry "CC/C=C\C[C@H](O)C/C=C1/C(=O)C(Cl)=C[C@@H]1C/C=C\CCCC(=O)OC" , tested on MALME-3M melanoma, has a reported GI50 of 0.451 µM

Entry CC(=O)OC1COC(Oc2c(C)c3c4c(c2O)[C@@H](C)CC[C@@H]4[C@@H](C)C[C@H]3C=C(C)C)C(O)C1OC(C)=O (some centres undefined) , tested on MALME-3M melanoma, has a reported GI50 of 15.2 µM

Entry "CCCCOC(=O)CNC(=O)OC/C=C/C#CC#C/C=C/COC(=O)NCC(=O)OCCCC" , tested on MALME-3M melanoma, has a reported GI50 of > 100 µM

* * *

- System: RPMI-8226 leukemia
- Assay name: NCI tumour cell line growth inhibition, 48 h
Listing of recorded TGI by entry.

Known results for compounds:
# Compound, Result
measured = [
    ("N.N.N.N.O=C([O-])CCl.O=C([O-])CCl.[Co+3].[O-][Cl+3]([O-])([O-])[O-]", "> 100 µM"),
    ("Nc1nc(Cl)cc(NCCCCCCCCNc2cc(Cl)nc(N)n2)n1", "> 100 µM"),
]

Entry CCC12CCCN(Cc3ccccc3)C1c1c(n(C)c3ccccc13)CC2 (centres undefined) , tested on RPMI-8226 leukemia, has a reported TGI of > 253 µM

Entry CCOC(=O)C(C#N)C1=CC(=O)C(=O)c2ccc(OC)cc21 (centres undefined) , tested on RPMI-8226 leukemia, has a reported TGI of > 100 µM

Entry CCCC(=O)OCC1OC(n2ccc(N)nc2=O)C(OC(=O)CCC)C1OC(=O)CCC (centres undefined) , tested on RPMI-8226 leukemia, has a reported TGI of > 100 µM

Entry "O=S(=O)(O)CCCc1cccc2ccccc12" , tested on RPMI-8226 leukemia, has a reported TGI of > 100 µM

Entry "CC(=O)N=C1N(/C=C2\C(=O)Oc3ccccc3C2=O)C(=O)/C(=C/c2cccc(Cl)c2Cl)N1C" , tested on RPMI-8226 leukemia, has a reported TGI of 52.5 µM

Entry "O=C1Nc2cccc(Cl)c2/C1=C\c1c(Cl)nc2n1CCS2" , tested on RPMI-8226 leukemia, has a reported TGI of > 100 µM

Entry "Cc1ccc(S(=O)(=O)N(C=O)N=C2CCN(Cc3ccccc3)CC2)cc1" , tested on RPMI-8226 leukemia, has a reported TGI of > 100 µM

Entry "O=C(N/N=C(\c1ccccc1)c1ccccn1)NC1CCCCC1" , tested on RPMI-8226 leukemia, has a reported TGI of > 100 µM
